- System: rat aorta rings
- Experiment Summary: Relaxation of rat aorta (phenylephrine-precontracted rings)
- Format: cell-based, rat (Wistar-Kyoto)
- Measurement Context: ring with endothelium, 50% relaxation of phenylephrine (1 μM) contraction
Readout Type: IC50

The cases that follow already have their IC50 on record.
COc1cc(NS(=O)(=O)c2ccc(Cl)cc2)c(C(=O)Nc2ccc(S(=O)(=O)N3CCSCC3)cc2)cc1OC ... 520 nM
O=C(Nc1ccc(S(=O)(=O)N2CCOCC2)cc1)c1cc(Cl)ccc1NS(=O)(=O)c1ccc(Cl)s1 ... 460 nM

# IC50 lookup, item `COc1cc(NS(=O)(=O)c2ccc(Cl)cc2)c(C(=O)Nc2ccc(S(=O)(=O)N3C[C@@H](C)O[C@@H](C)C3)cc2)cc1OC`
670 nM

* * *

- Target: soluble guanylate cyclase (sGC) (Bos taurus, UniProt P16068)
- Construct: The sGC which was employed had been isolated from bovine lung; from tissue; host or cells: bovine lung
- Experiment Summary: Activation of the soluble guanylate cyclase (cGMP enzyme immunoassay)
- Type: biochemical, bovine
- Measurement Context: concentration c 10 μM; n-fold stimulation of basal enzyme activity
Readout Type: n-fold stimulation
// print number alone

The cases that follow already have their n-fold stimulation on record.
Cc1cc(NC(=O)c2cc(Cl)ccc2NS(=O)(=O)c2ccc(Cl)cc2)ccc1S(=O)(=O)N1CCCCC1 ... 16.2
COc1cc(NS(=O)(=O)c2ccc(Cl)s2)c(C(=O)Nc2ccc(S(=O)(=O)N(C)Cc3cccnc3)cc2)cc1OC.Cl ... 27.5
O=C(Nc1ccc(S(=O)(=O)c2ccccc2)cc1)c1cc(Cl)ccc1NS(=O)(=O)c1ccc(Cl)s1 ... 13.4

# n-fold stimulation lookup, item `COc1cc(NS(=O)(=O)c2c(C)noc2C)c(C(=O)Nc2ccc(S(=O)(=O)N(C)Cc3cccnc3)cc2)cc1OC`
21.9

Then `Cc1noc(C)c1S(=O)(=O)Nc1ccc(Cl)cc1C(=O)Nc1ccc(S(=O)(=O)N2C[C@@H](C)O[C@@H](C)C2)cc1` ?
29.5

Then `Cc1noc(C)c1S(=O)(=O)Nc1ccc(Cl)cc1C(=O)Nc1ccc(S(=O)(=O)N(C)Cc2cccnc2)cc1` ?
28.5

Then `Cc1cc(NC(=O)c2cc(Cl)ccc2NS(=O)(=O)c2ccc(Cl)cc2)ccc1S(=O)(=O)N1CCOCC1` ?
26.7

Then `Cc1noc(C)c1S(=O)(=O)Nc1ccc(Cl)cc1C(=O)Nc1ccc(S(=O)(=O)N2CCc3ccccc3C2)cc1` ?
23.1

Then Cc1noc(C)c1S(=O)(=O)Nc1ccc(Cl)cc1C(=O)Nc1ccc(S(=O)(=O)N2CC(C)CC(C)C2)cc1 (stereo not shown) ?
27.1

Then `Cc1cc(NC(=O)c2cc(Cl)ccc2NS(=O)(=O)c2ccc(Cl)cc2)ccc1S(=O)(=O)N1C[C@@H](C)O[C@@H](C)C1` ?
31.1

* * *

- Target: soluble guanylate cyclase (sGC) (Bos taurus, UniProt P16068)
- Construct: The sGC which was employed had been isolated from bovine lung; from tissue; host or cells: bovine lung
- Sequence (P16068 1-619): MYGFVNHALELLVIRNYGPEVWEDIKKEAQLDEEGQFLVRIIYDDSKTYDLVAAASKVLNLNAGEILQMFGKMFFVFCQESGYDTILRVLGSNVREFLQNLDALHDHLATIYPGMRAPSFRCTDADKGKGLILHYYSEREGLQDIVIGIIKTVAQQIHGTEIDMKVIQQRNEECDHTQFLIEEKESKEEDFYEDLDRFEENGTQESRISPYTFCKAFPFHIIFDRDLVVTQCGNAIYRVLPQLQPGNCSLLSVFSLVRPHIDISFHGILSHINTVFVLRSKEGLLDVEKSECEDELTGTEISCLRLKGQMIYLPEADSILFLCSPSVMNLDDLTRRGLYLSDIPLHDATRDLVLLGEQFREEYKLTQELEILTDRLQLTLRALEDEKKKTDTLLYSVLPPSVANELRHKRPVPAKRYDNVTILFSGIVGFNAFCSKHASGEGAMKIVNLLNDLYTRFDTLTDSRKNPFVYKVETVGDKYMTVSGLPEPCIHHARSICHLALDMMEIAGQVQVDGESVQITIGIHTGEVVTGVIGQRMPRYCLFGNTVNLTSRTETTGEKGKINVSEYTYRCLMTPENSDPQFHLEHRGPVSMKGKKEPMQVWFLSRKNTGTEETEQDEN
- Sequence (P19687 1-691 partner): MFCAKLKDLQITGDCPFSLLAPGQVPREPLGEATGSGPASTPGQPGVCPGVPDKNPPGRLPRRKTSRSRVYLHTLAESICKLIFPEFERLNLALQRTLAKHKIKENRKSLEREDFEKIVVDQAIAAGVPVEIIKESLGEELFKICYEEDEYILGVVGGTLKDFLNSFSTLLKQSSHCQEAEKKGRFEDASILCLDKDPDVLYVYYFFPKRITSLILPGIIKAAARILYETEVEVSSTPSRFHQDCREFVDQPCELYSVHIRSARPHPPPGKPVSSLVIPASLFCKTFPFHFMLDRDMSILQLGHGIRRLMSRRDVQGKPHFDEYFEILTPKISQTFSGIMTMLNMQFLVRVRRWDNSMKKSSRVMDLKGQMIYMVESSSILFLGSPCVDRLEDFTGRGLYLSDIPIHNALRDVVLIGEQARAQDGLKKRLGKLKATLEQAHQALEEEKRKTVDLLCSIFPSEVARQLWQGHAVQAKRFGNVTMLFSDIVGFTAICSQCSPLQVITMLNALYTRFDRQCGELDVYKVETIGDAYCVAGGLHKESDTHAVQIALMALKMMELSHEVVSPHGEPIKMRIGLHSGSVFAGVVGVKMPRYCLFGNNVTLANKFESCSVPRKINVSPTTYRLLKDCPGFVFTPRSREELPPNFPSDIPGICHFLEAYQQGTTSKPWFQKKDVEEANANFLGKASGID
- Experiment Summary: Activation of the soluble guanylate cyclase (cGMP enzyme immunoassay)
- Assay type: biochemical, bovine
- Measurement Context: concentration c 50 μM; n-fold stimulation of basal enzyme activity
- Experimental: The activation of the soluble guanylate cyclase (sGC) which catalyzes the conversion of guanosine triphosphate (GTP) into cyclic guanosine monophosphate (cGMP) and pyrophosphate, by the compounds according to the invention was quantified with the aid of an enzyme immunoassay (EIA) from Amersham. For this purpose the substances to be tested were initially incubated with sGC in microtiter plates, and the amount of the cGMP formed was then determined. […]
Readout Type: n-fold stimulation
// print number alone

COc1cc(NS(=O)(=O)c2ccc(Cl)cc2)c(C(=O)Nc2ccc(S(=O)(=O)N3CC[S+]([O-])CC3)cc2)cc1OC [Example 176] ... 13.9
Cc1cc(C)c(S(=O)(=O)Nc2ccc(Cl)cc2C(=O)Nc2ccc(S(=O)(=O)N3CCOCC3)cc2)c(C)c1 [Example 150] ... 15.3
O=C(Nc1ccc(S(=O)(=O)N2CCSCC2)cc1)c1cc(Cl)ccc1NS(=O)(=O)c1ccc(Cl)c(Cl)c1 [Example 70] ... 25.1
Cc1noc(C)c1S(=O)(=O)Nc1ccc(Cl)cc1C(=O)Nc1ccc(S(=O)(=O)N2CCOCC2)cc1 [Example 224] ... 27.8
Cc1nn(C)c(Cl)c1S(=O)(=O)Nc1ccc(Cl)cc1C(=O)Nc1ccc(S(=O)(=O)N2CCOCC2)cc1 [Example 130] ... 35.3

Proceeding to the next compound to report its n-fold stimulation.
# n-fold stimulation lookup, item O=C(Nc1ccc(S(=O)(=O)N2CCC(O)CC2)cc1)c1cc(Cl)ccc1NS(=O)(=O)c1ccc(Cl)cc1 [Example 67]
29.6
